# targetOrTestSystem: T1, topo VI holoenzyme WT (Methanosarcina mazei, UniProt Q8PUB7;Q8PUB8 1-369;1-621)
# T1 sequence 1: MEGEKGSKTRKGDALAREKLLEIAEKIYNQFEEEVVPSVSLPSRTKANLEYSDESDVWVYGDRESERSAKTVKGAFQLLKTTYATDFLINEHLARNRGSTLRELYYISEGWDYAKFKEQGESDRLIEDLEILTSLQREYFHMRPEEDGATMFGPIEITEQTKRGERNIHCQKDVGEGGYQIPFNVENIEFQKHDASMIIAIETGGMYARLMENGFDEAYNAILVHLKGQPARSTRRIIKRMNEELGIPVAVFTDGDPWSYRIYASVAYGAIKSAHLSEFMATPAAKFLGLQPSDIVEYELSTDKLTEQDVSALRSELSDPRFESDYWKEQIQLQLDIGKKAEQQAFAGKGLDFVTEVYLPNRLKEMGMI
# T1 sequence 2: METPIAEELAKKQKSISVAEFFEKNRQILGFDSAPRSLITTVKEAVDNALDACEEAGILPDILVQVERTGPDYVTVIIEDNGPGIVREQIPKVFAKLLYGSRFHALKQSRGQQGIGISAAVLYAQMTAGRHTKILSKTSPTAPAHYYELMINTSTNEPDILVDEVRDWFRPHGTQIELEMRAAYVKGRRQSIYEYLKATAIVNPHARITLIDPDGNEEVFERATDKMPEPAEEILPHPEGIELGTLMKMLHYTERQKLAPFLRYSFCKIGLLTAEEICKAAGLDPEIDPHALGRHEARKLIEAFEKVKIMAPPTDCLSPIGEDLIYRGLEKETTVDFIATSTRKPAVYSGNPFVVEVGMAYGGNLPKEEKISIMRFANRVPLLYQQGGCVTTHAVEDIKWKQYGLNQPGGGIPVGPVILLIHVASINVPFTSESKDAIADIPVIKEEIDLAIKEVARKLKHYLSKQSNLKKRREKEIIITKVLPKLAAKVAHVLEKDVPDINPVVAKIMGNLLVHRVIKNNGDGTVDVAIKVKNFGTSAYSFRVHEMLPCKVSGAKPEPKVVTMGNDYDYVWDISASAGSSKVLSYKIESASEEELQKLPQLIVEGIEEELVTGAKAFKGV
# testDetails: fluorescence anisotropy; Fluorescence anisotropy, 20 nM FAM-labelled DNA, topo VI 0 and 3.9-4000 nM, no nucleotide; buffer, salt, pH and temperature not given in supplied text
# experimentalConditions: protein: recombinant; tags: N-terminal His6-TEV on Top6B, removed; chain copies: 2;2; label: 5'-FAM strand 1; blunt
Would you kindly list pKd for each of these binders?
Units for pKd: none; it is -log10 of a concentration expressed in mol/L.

Reported pKd, binder 20 bp duplex (dsDNA) DNA 1: CGGAAGAGTATGAGTATTCG DNA 2: CGAATACTCATACTCTTCCG : ____
6.37

What do you get for 60 bp duplex (dsDNA) DNA 1: CGCTTCAATAATATTGAAAAAGGAAGAGTATGAGTATTCAACATTTCCGTGTCGCCCTTC DNA 2: GAAGGGCGACACGGAAATGTTGAATACTCATACTCTTCCTTTTTCAATATTATTGAAGCG ?
7.42

What do you get for 30 bp duplex (dsDNA) DNA 1: CAAAAAGGAAGAGTATGAGTATTCAACATC DNA 2: GATGTTGAATACTCATACTCTTCCTTTTTG ?
7.08

What do you get for 70 bp duplex (dsDNA) DNA 1: CCAAATGCTTCAATAATATTGAAAAAGGAAGAGTATGAGTATTCAACATTTCCGTGTCGCCCTTATTCCC DNA 2: GGGAATAAGGGCGACACGGAAATGTTGAATACTCATACTCTTCCTTTTTCAATATTATTGAAGCATTTGG ?
7.21

What do you get for 40 bp duplex (dsDNA) DNA 1: CTATTGAAAAAGGAAGAGTATGAGTATTCAACATTTCCGC DNA 2: GCGGAAATGTTGAATACTCATACTCTTCCTTTTTCAATAG ?
7.31
